molecules and their reported percent inhibition of viability
- Tested on: KHYG-1 (IL-2 2.5 ng/mL)
- assay-remarks: percent inhibition of viability; higher = more inhibition;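 also: normalised to DMSO-only wells as negative and benzethonium chloride as positive control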
- condition-parameters: 72 h; 10 nM
property: percent inhibition of viability (%)

>  <molecule>
CC[C@]1(O)C[C@H]2CN(CCc3c([nH]c4ccccc34)[C@@](C(=O)OC)(c3cc4c(cc3OC)N(C=O)[C@H]3[C@@](O)(C(=O)OC)[C@H](OC(C)=O)[C@]5(CC)C=CCN6CC[C@]43[C@@H]65)C2)C1 [Vincristine] (max concentration tested 1000 nM)

>  <system>
KHYG-1 (IL-2 2.5 ng/mL)

>  <val>
99.8

$$$$
>  <molecule>
COc1cccc2c1C(=O)c1c(O)c3c(c(O)c1C2=O)C[C@@](O)(/C(CO)=N/NC(=O)CCCCCN1C(=O)C=CC1=O)C[C@@H]3O[C@H]1C[C@H](N)[C@H](O)[C@H](C)O1 [Aldoxorubicin] (max concentration tested 1000 nM)

>  <system>
KHYG-1 (IL-2 2.5 ng/mL)

>  <val>
-0.18

$$$$
>  <molecule>
O=C(O)c1ccc(-c2c[nH]c3ncc(-c4ccccc4)cc23)cc1C1CCCC1 (max concentration tested 10000 nM)

>  <system>
KHYG-1 (IL-2 2.5 ng/mL)

>  <val>
-1.17

$$$$

----------
Measured percent inhibition of viability, listed per entry.
- Test system: normal primary NK cells, pool 1 (3 donors), resting (IL-2 0 ng/mL)
- assay-remarks: percent inhibition of viability; higher = more inhibition
- condition-parameters: 72 h; 100 nM

>  <compound>
O=P1(NCCCl)OCCCN1CCCl (stereo unspecified) [Ifosfamide] (max concentration tested 10000 nM)

>  <system>
normal primary NK cells, pool 1 (3 donors), resting (IL-2 0 ng/mL)

>  <percent inhibition of viability (%)>
1.44

$$$$
>  <compound>
Oc1nc(-c2ccc(C(F)(F)F)cc2)nc2c1CSCC2 [XAV-939] (max concentration tested 10000 nM)

>  <system>
normal primary NK cells, pool 1 (3 donors), resting (IL-2 0 ng/mL)

>  <percent inhibition of viability (%)>
-3.21

$$$$
>  <compound>
COc1nc(N)nc2c1ncn2[C@@H]1O[C@H](CO)[C@@H](O)[C@@H]1O [Nelarabine] (max concentration tested 10000 nM)

>  <system>
normal primary NK cells, pool 1 (3 donors), resting (IL-2 0 ng/mL)

>  <percent inhibition of viability (%)>
58.9

$$$$
>  <compound>
CC[C@H](C)C(=O)O[C@H]1C[C@@H](C)C=C2C=C[C@H](C)[C@H](CC[C@@H]3C[C@@H](O)CC(=O)O3)[C@H]21 [Lovastatin] (max concentration tested 10000 nM)

>  <system>
normal primary NK cells, pool 1 (3 donors), resting (IL-2 0 ng/mL)

>  <percent inhibition of viability (%)>
-15

$$$$
>  <compound>
Cc1cc(Nc2nc(N[C@@H](C)c3ncc(F)cn3)ncc2Cl)[nH]n1 [AZD1480] (max concentration tested 1000 nM)

>  <system>
normal primary NK cells, pool 1 (3 donors), resting (IL-2 0 ng/mL)

>  <percent inhibition of viability (%)>
2

$$$$
>  <compound>
CCC1(c2ccc(N)cc2)CCC(=O)NC1=O (stereo unspecified) [Aminoglutethimide] (max concentration tested 10000 nM)

>  <system>
normal primary NK cells, pool 1 (3 donors), resting (IL-2 0 ng/mL)

>  <percent inhibition of viability (%)>
-1.78

$$$$

Recorded values, source the supplement of paper PMC5908809.
